- Tested on: Giardia intestinalis
- ASSAY PROTOCOL: Anti-parasitic activity against Giardia intestinalis assemblage A ATCC 30957 trophozoites assessed as inhibition of cyst production incubated for 24 hrs
- Type: functional, organism-based
- TEST SETTINGS: Giardia duodenalis, assemblage A ATCC 30957, 24 h
MEASUREMENT NAME: pIC50
One number for each entry, as −log10 of the molar value.

Count: 2. Required value per item: pIC50.
1. CCCC(=O)N[C@@H]1[C@@H](N=[N+]=[N-])C=C(C(=O)O)C[C@H]1OC(CC)CC
2. CCC(CC)O[C@@H]1CC(C(=O)O)=C[C@H](NC(C)=O)[C@H]1NC(C)=O

Ans:
1: 4.34; 2: 4.39

Q: Bench note: what pIC50 did Cc1ncc([N+](=O)[O-])n1CCO show?
Ans: 5.40
